# Tested on: SK-MEL-28 melanoma
# protocol: NCI-60 one-dose screen, 48 h (100 = growth as untreated, 0 = no growth, -100 = all killed)
# condition_parameters: 10 µM unless noted
The panel holds about 83,000 compounds, 20% with a hit somewhere; the sample as a whole holds those more often.
I'd be grateful if you could share measured growth for these entries.
Numbers only, in %.

The cases that follow already have their growth on record.
COC(=O)/C=C1\SC(=Nc2ccc(F)cc2)N(CCc2c[nH]c3ccccc23)C1=O | 112
C[C@H]1[C@H](C)CC[C@]2(C(=O)OCCOCCOCC[P+](c3ccccc3)(c3ccccc3)c3ccccc3)CC[C@]3(C)C(=CC[C@@H]4[C@@]5(C)CC[C@H](OC(=O)C(Cl)Cl)C(C)(C)[C@@H]5CC[C@]43C)[C@H]12 | 30
Nc1c(C(=O)Nc2cccc3ccccc23)sc2nc3c(cc12)CCCCC3 | 71.7

Let us move to another entry and its growth.
## Task For the molecule N#Cc1ccc(C2C3=C(CCCC3=O)OC3=C2C(=O)c2ccccc2C3=O)cc1 (centres undefined) , what growth is on record?
## Result 112

Recorded values, source PubChem BioAssay (NCI).
